testedSystem: Man(b1-4)GlcNAc
assaySummary: glycan array binding signal (z-score within array); higher = stronger binding
settings: glycan notation: IUPAC condensed, linker removed
Only a selection was taken, and the strongest signals are over-represented in it overall.
// values below are reported glycan array binding signal (z-score)
Returns: the value as a bare number; no unit string appended.

Entry AFCNVH (Aspergillus fumigatus) (protein) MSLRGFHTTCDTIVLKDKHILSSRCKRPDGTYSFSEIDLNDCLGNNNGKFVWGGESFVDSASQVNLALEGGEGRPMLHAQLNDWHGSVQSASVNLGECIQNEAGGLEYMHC : reported glycan array binding signal (z-score) = ?
-0.3

Entry Flo1 (Saccharomyces cerevisiae), P32768 (protein) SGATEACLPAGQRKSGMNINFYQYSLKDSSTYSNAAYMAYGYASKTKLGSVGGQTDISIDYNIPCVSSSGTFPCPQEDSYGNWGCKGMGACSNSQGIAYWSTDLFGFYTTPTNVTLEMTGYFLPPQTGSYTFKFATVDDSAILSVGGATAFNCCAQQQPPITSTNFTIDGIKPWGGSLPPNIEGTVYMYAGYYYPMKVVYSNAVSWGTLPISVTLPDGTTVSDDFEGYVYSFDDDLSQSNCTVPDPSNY : reported glycan array binding signal (z-score) = ?
-0.306
